System: mino cells
TEST DETAILS: Activity test in Mino cells (CCK8 proliferation inhibition)
Type: cell-based
EXPERIMENTAL PARAMETERS: Homo sapiens, 72 h, 3 days, read-out: Cell inhibition IC50
pIC50: −log10 of the molar value.
READOUT: pIC50

Prompt: Supply measured pIC50 of COc1ccc(F)cc1C(=O)NCc1ccc(-c2nc(-c3ccc(N4CCN(CC5CCN(c6ccc(N7CCC(=O)NC7=O)c(C)c6)CC5)CC4)cc3)n3ccnc(N)c23)c(F)c1 in your reply.
Completion: > 7.60

Prompt: Supply measured pIC50 of Cc1cc(N2CCN(C[C@@H]3CCCC[C@H]3CN3CCN(c4ccc(-n5nc(-c6ccc(Oc7ccccc7)cc6)c6c(N)ncnc65)cn4)CC3)CC2)ccc1N1CCC(=O)NC1=O in your reply.
Completion: > 6.30

Prompt: Supply measured pIC50 of Cc1cc(N2CCC(CN3CCN(c4ccc(-c5nc(-c6ccc(Oc7ccccc7)cc6)c6c(N)nccn56)cn4)CC3)CC2)ccc1N1CCC(=O)NC1=O in your reply.
Completion: > 7.30
